# Target or test system: CLK3 kinase (Homo sapiens)
# Sequence (P49761 whole entry): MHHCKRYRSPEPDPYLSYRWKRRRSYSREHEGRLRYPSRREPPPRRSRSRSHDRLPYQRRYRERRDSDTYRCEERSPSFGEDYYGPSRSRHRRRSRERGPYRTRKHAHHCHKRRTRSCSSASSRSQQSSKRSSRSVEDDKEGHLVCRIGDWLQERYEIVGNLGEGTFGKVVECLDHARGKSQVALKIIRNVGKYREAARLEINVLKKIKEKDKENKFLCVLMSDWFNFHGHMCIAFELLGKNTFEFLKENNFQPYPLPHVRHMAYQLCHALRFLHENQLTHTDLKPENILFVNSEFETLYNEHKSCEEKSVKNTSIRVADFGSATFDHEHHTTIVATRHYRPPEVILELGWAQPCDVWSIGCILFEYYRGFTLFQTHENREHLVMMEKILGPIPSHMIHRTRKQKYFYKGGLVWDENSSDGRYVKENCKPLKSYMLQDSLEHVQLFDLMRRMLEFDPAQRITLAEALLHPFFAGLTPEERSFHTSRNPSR
# Assay protocol: CLK3 kinase activity assay (Z-lyte FRET)
# Experimental context: Z-lyte Ser/Thr 18 peptide, 156 μM ATP, 1 h at room temperature
Could you please report measured EC50 for the items listed next?
Write the value in nM as a bare number.

Query: EC50; subject: CN(C)CCOc1cncc(-c2cnc3[nH]nc(-c4nc5c(-c6cccc(F)c6)nccc5[nH]4)c3c2)c1 [compound 151]
55

Query: EC50; subject: CC(C)N1CCC(Oc2cc(C(=O)Nc3cc4cc(-c5cnn6c5CCNC6)ccc4cn3)ccn2)CC1 [compound 575]
26

Query: EC50; subject: CC(C)CC(=O)Nc1cncc(-c2cnc3[nH]nc(-c4cc5c(-c6cc(F)cc(CNS(C)(=O)=O)c6)cncc5[nH]4)c3c2)c1 [compound 523]
81

Query: EC50; subject: CC(C)(C)CC(=O)Nc1cncc(-c2cnc3[nH]nc(-c4cc5c(-c6cccnc6)cncc5[nH]4)c3c2)c1 [compound 353]
85

Query: EC50; subject: CN(C)Cc1cncc(-c2ccc3[nH]nc(-c4cc5c(-c6cccnc6)cccc5[nH]4)c3n2)c1 [compound 368]
102

Query: EC50; subject: FC1(F)CCN(Cc2cncc(-c3ccc4[nH]nc(-c5nc6c(-c7ccsc7)cncc6[nH]5)c4c3)c2)C1 [compound 253]
26

Query: EC50; subject: CCCCC(=O)Nc1cncc(-c2ccc3[nH]nc(-c4cc5c(N6CCCCC6)cccc5[nH]4)c3n2)c1 [compound 458]
2190

Query: EC50; subject: CC(C)Nc1cncc(-c2ccc3cnc(NC(=O)c4cccc(C5CCN(C)CC5)c4)cc3c2)n1 [compound 599]
11

Query: EC50; subject: CN1CCN(c2nccc3[nH]c(-c4n[nH]c5ccc(-c6cncc(CN7CCCCC7)c6)nc45)cc23)CC1 [compound 496]
524

Query: EC50; subject: C[C@@H]1CN(c2ccc(NC(=O)c3n[nH]c4ccc(-c5cncc(CN6CCCCC6)c5)cc34)cn2)C[C@H](C)O1 [compound 92]
89

Query: EC50; subject: O=C(Nc1ccnnc1)c1n[nH]c2ccc(-c3cccnc3)cc12 [compound 64]
21

Query: EC50; subject: c1ccc(CNCc2cncc(-c3ccc4[nH]nc(-c5cc6c(-c7cccs7)cncc6[nH]5)c4c3)c2)cc1 [compound 508]
68

Query: EC50; subject: CN1CCN(c2cncc3[nH]c(-c4n[nH]c5ccc(-c6cncc(CNCc7ccccc7)c6)cc45)cc23)CC1 [compound 490]
142

Query: EC50; subject: NC1CN(c2cc(C(=O)Nc3cc4cc(-c5cnco5)ccc4cn3)ccn2)C1 [compound 590]
40

Query: EC50; subject: CC(C)(C)CC(=O)Nc1cncc(-c2cnc3[nH]nc(-c4cc5cnccc5[nH]4)c3c2)c1 [compound 424]
47

Query: EC50; subject: CC(C)Nc1cncc(-c2cnc3[nH]nc(-c4cc5c(-c6cccnc6)ccnc5[nH]4)c3c2)c1 [compound 362]
292

Query: EC50; subject: CCC(=O)Nc1cncc(-c2ccc3[nH]nc(-c4nc5c(-c6cccc(F)c6)ccnc5[nH]4)c3n2)c1 [compound 121]
30

Query: EC50; subject: CCCCC(=O)Nc1cncc(-c2ccc3[nH]nc(-c4nc5c(-c6cc(F)cc(NCCN(C)C)c6)cncc5[nH]4)c3n2)c1 [compound 279]
93

Query: EC50; subject: COc1cncc(C(=O)Nc2c[nH]nc2C(=O)Nc2ccc3c(c2)CCNC3)c1 [compound 8]
6160

Query: EC50; subject: FC1(F)CCN(Cc2cncc(-c3ccc4[nH]nc(-c5nc6c(N7CCCCC7)cncc6[nH]5)c4c3)c2)C1 [compound 211]
107

Query: EC50; subject: O=C(Nc1cnccn1)c1n[nH]c2ccc(-c3cncc(CN4CCCCCC4)c3)cc12 [compound 99]
135

Query: EC50; subject: CN1CCN(c2cc(C(=O)Nc3cc4cc(-c5cncs5)ccc4cn3)ccn2)CC1 [compound 591]
20

Query: EC50; subject: CN(C)Cc1cncc(-c2ccc3[nH]nc(-c4cc5cnccc5[nH]4)c3n2)c1 [compound 442]
101

Query: EC50; subject: c1cnc2[nH]c(-c3n[nH]c4ccc(-c5cncc(OCCN6CCCC6)c5)cc34)cc2c1 [compound 453]
246

Query: EC50; subject: CCC(=O)Nc1cncc(-c2cnc3[nH]nc(-c4nc5c(-c6cccs6)cncc5[nH]4)c3c2)c1 [compound 255]
62

Query: EC50; subject: CN(C)Cc1cncc(-c2cnc3[nH]nc(-c4nc5c(-c6cccs6)cncc5[nH]4)c3c2)c1 [compound 260]
128

Query: EC50; subject: Cc1cn(-c2nccc3[nH]c(-c4n[nH]c5ccc(-c6cncc(NC(=O)CC(C)C)c6)cc45)nc23)cn1 [compound 224]
56

Query: EC50; subject: CN1CCc2cc(C(=O)Nc3cc4cc(-c5cn(C)nn5)ccc4cn3)ccc2C1 [compound 578]
48

Query: EC50; subject: Cc1n[nH]c2ccc(-c3cncc(OCC4(F)CNC4)n3)cc12 [compound 49]
2200

Query: EC50; subject: c1cncc(-c2ccc3[nH]nc(-c4cc5c(-c6cccnc6)cncc5[nH]4)c3c2)c1 [compound 341]
3

----------
# Target or test system: CLK3 kinase (Homo sapiens)
# Assay protocol: CLK3 kinase activity assay (Z-lyte FRET)
# Type: biochemical
# Experimental context: Z-lyte Ser/Thr 18 peptide, 156 μM ATP, 1 h at room temperature
Could you please report measured log10 EC50 for the items listed next?
// stored as log10 of EC50 expressed in nM

Query: log10 EC50; subject: `O=C(Nc1cncc(-c2ccc3[nH]nc(-c4cc5c(-c6ccccc6F)nccc5[nH]4)c3n2)c1)C1CC1`
2.04

Query: log10 EC50; subject: `CS(=O)(=O)NCc1cc(F)cc(-c2cncc3[nH]c(-c4n[nH]c5ccc(-c6cncc(NC(=O)C7CCC7)c6)cc45)cc23)c1`
1.82

Query: log10 EC50; subject: `O=C(Nc1cncc(-c2ccc3[nH]nc(-c4nc5c(-c6ccc(Cl)s6)nccc5[nH]4)c3n2)c1)C1CCC1`
3.99

Query: log10 EC50; subject: `CN1CCN(c2ccc(C(=O)Nc3cc4cc(-c5cnn6c5CN(CCF)CC6)ccc4cn3)cn2)CC1`
1.91

Query: log10 EC50; subject: `O=C(Nc1cncc(-c2cnc3[nH]nc(-c4cc5cnccc5[nH]4)c3c2)c1)c1ccccc1`
1.66

Query: log10 EC50; subject: `CC(C)(C)C(=O)Nc1cncc(-c2ccc3[nH]nc(-c4nc5c(-c6cccnc6)cncc5[nH]4)c3c2)c1`
1.36

Query: log10 EC50; subject: `Cn1cc(-c2ccc3cnc(NC(=O)c4ccnc(OC5CNC5)c4)cc3c2)cn1`
1.58

----------
# Target or test system: CLK3 kinase (Homo sapiens)
# Assay protocol: CLK3 kinase activity assay (Z-lyte FRET);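 also: kinase activity read as coumarin/fluorescein emission ratio by FRET, unphosphorylated peptide as 0% and phosphorylated peptide as 100% control, values from non-linear regression of dose-response curves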
# Experimental context: Z-lyte Ser/Thr 18 peptide, 156 μM ATP, 1 h at room temperature
Measured attribute: log10 EC50 (log10 of the value in µM)
// stored as log10 of EC50 expressed in µM

Query: log10 EC50; subject: `CN(C)Cc1cncc(-c2ccc3[nH]nc(-c4nc5c(-c6cccc(F)c6)cncc5[nH]4)c3n2)c1`
-1.10

Query: log10 EC50; subject: `Cc1ccncc1-c1ccc2[nH]nc(-c3nc4c(-c5ccsc5)nccc4[nH]3)c2c1`
-1.12

Query: log10 EC50; subject: `CN(C)CCNc1cc(F)cc(-c2ccnc3[nH]c(-c4n[nH]c5ccc(-c6cncc(CN7CCCCC7)c6)nc45)cc23)c1`
-1.31

Query: log10 EC50; subject: `CCNCc1cncc(-c2ccc3[nH]nc(-c4cc5cnccc5[nH]4)c3c2)c1`
-1.31

Query: log10 EC50; subject: `CC(C)Nc1cncc(-c2cnc3[nH]nc(-c4nc5c(-c6ccoc6)nccc5[nH]4)c3c2)c1`
-0.87

Query: log10 EC50; subject: `CCNCc1cncc(-c2ccc3[nH]nc(-c4cc5ccccc5[nH]4)c3c2)c1`
-0.57

Query: log10 EC50; subject: `CN1CCC(n2cc(C(=O)Nc3ncc4ccc(-c5cncc6[nH]ccc56)cc4n3)cn2)CC1`
-1.72

Query: log10 EC50; subject: `Cc1ccncc1-c1cnc2[nH]nc(-c3cc4c(-c5cccnc5)cncc4[nH]3)c2c1`
-0.97

Query: log10 EC50; subject: `c1cnc2cc(-c3n[nH]c4ccc(-c5cncc(CN6CCCCC6)c5)cc34)[nH]c2c1`
-1.72

Query: log10 EC50; subject: `CN1CCN(c2cccc3[nH]c(-c4n[nH]c5ccc(-c6cncc(CN7CCCCC7)c6)cc45)cc23)CC1`
-0.04

Query: log10 EC50; subject: `Cn1cc(-c2ccc3[nH]nc(-c4cc5c(-c6cccnc6)cncc5[nH]4)c3c2)cn1`
-1.00

Query: log10 EC50; subject: `O=C(Nc1ccc(OC(F)F)cc1)c1n[nH]c2ccc(-c3cnc4n3CCNC4)cc12`
-0.41

Query: log10 EC50; subject: `CC(C)(C)C(=O)Nc1cncc(-c2ccc3[nH]nc(-c4nc5c(-c6ccc(F)cc6)cncc5[nH]4)c3n2)c1`
0.99

Query: log10 EC50; subject: `CC(C)CC(=O)Nc1cncc(-c2cc3c(-c4nc5c(-c6ccoc6)cccc5[nH]4)n[nH]c3cn2)c1`
-0.28

Query: log10 EC50; subject: `c1cncc(-c2cc3c(-c4cc5c(-c6cccnc6)cncc5[nH]4)n[nH]c3cn2)c1`
-0.33

Cited source for all entries: patent US20230000842A1
